Sourced from BindingDB's records for doi:10.1038/sj.mp.4000336

target: 5-hydroxytryptamine receptor 2A (Rattus norvegicus, UniProt P14842)
Sequence (P14842 whole entry): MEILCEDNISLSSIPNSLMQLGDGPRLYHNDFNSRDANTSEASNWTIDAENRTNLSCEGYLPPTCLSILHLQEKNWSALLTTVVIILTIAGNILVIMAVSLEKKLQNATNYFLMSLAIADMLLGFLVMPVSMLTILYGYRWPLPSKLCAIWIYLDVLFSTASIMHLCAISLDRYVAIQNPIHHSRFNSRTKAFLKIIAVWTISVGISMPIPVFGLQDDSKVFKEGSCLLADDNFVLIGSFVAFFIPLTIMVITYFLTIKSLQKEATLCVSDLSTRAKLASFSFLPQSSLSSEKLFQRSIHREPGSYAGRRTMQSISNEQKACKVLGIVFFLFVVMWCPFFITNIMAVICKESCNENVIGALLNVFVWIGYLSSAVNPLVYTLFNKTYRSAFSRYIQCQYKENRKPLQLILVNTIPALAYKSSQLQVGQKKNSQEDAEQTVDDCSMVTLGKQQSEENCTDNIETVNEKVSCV
EXPERIMENTAL READOUT: pKi
When answering, recall that pKi equals minus log10 of the concentration in mol/L, and write that number alone.

Lookup: Which value of pKi has been reported for O=C1C2CCCCC2C(=O)N1CCCCN1CCN(c2nsc3ccccc23)CC1 (stereo unspecified) in the records?
Found: 8.89
